Item-by-item account of IC50
molecular target: His-tagged KRAS G12D protein (Homo sapiens, UniProt P01116, G12D); experiment: biochemical
Sequence (P01116 1-188 isoform P01116-2 G12D): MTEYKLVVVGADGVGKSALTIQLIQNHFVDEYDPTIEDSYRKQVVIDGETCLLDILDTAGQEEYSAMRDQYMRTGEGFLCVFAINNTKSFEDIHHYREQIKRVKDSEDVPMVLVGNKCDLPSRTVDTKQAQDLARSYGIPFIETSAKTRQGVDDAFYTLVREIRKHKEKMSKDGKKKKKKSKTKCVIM
Express it in nM; write the number only.

- compound: "CCc1c(F)ccc2cc(O)cc(-c3ncc4c(N5CC6CCOC6C5)nc(OC[C@@]56CCCN5C[C@H](F)C6)nc4c3F)c12 (stereo partly drawn) [Example 37]"
  system name: "His-tagged KRAS G12D protein (Homo sapiens, UniProt P01116, G12D)"
  units of measure: "nM"
  IC50: 42
- compound: "CCc1c(F)ccc2cc(O)cc(-c3ncc4c(N5CCCC(O)(C(F)F)C5)nc(OC[C@@]56CCCN5C[C@H](F)C6)nc4c3F)c12 (single isomer, unassigned) [Example 40]"
  system name: "His-tagged KRAS G12D protein (Homo sapiens, UniProt P01116, G12D)"
  units of measure: "nM"
  IC50: 15
- compound: "CCc1c(F)ccc2cc(O)cc(-c3ncc4c(N5CC(O)CC(C)(C)C5)nc(OC[C@@]56CCCN5C[C@H](F)C6)nc4c3F)c12 (stereo partly drawn) [Example 32]"
  system name: "His-tagged KRAS G12D protein (Homo sapiens, UniProt P01116, G12D)"
  units of measure: "nM"
  IC50: 9
- compound: "CCc1c(F)ccc2cc(O)cc(-c3ncc4c(N5CCC[C@@H](C(=O)O)C5)nc(OC[C@@]56CCCN5C[C@H](F)C6)nc4c3F)c12 [Example 138]"
  system name: "His-tagged KRAS G12D protein (Homo sapiens, UniProt P01116, G12D)"
  units of measure: "nM"
  IC50: 16
- compound: "CCc1c(F)ccc2cc(O)cc(-c3ncc4c(N5C[C@H](O)[C@@H](O)C5)nc(OC[C@@]56CCCN5C[C@H](F)C6)nc4c3F)c12 [Example 117]"
  system name: "His-tagged KRAS G12D protein (Homo sapiens, UniProt P01116, G12D)"
  units of measure: "nM"
  IC50: 9
- compound: "CCc1c(F)ccc2cc(O)cc(-c3ncc4c(N5CCC[C@@H](C(=O)OC)C5)nc(OC[C@@]56CCCN5C[C@H](F)C6)nc4c3F)c12 [Example 126]"
  system name: "His-tagged KRAS G12D protein (Homo sapiens, UniProt P01116, G12D)"
  units of measure: "nM"
  IC50: 37
- compound: "CCc1c(F)ccc2cc(O)cc(-c3ncc4c(N5C[C@H](O)C[C@H](C(F)(F)F)C5)nc(OC[C@@]56CCCN5C[C@H](F)C6)nc4c3F)c12 [Example 154]"
  system name: "His-tagged KRAS G12D protein (Homo sapiens, UniProt P01116, G12D)"
  units of measure: "nM"
  IC50: 16
- compound: "C#Cc1c(F)ccc2cc(O)cc(-c3ncc4c(N5CC6CC(O)C(C6)C5)nc(OC[C@@]56CCCN5C[C@H](F)C6)nc4c3F)c12 (single isomer, unassigned) [Example 27]"
  system name: "His-tagged KRAS G12D protein (Homo sapiens, UniProt P01116, G12D)"
  units of measure: "nM"
  IC50: 6

Q. Entry CCc1c(F)ccc2cc(O)cc(-c3ncc4c(N5CCCC[C@@H](NC(C)=O)C5)nc(OC[C@@]56CCCN5C[C@H](F)C6)nc4c3F)c12 [Example 133] , system His-tagged KRAS G12D protein (Homo sapiens, UniProt P01116, G12D): what IC50 was measured?
A. 2

Q. Entry CCc1c(F)ccc2cc(O)cc(-c3ncc4c(N5CCC[C@H]6NC(=O)C[C@H]65)nc(OC[C@@]56CCCN5C[C@H](F)C6)nc4c3F)c12 (relative stereo) [Example 63] , system His-tagged KRAS G12D protein (Homo sapiens, UniProt P01116, G12D): what IC50 was measured?
A. 39

Q. Entry CCc1c(F)ccc2cc(O)cc(-c3ncc4c(N5CCCCCC5)nc(OC[C@@]56CCCN5C[C@H](F)C6)nc4c3F)c12 [Example 2] , system His-tagged KRAS G12D protein (Homo sapiens, UniProt P01116, G12D): what IC50 was measured?
A. 1

Q. Entry CCc1c(F)ccc2cc(O)cc(-c3ncc4c(N5C[C@@H](O)[C@@H](O)C5)nc(OC[C@@]56CCCN5C[C@H](F)C6)nc4c3F)c12 [Example 11] , system His-tagged KRAS G12D protein (Homo sapiens, UniProt P01116, G12D): what IC50 was measured?
A. 3
